Listed here are molecules together with their documented IC50.
targetOrSystem: Orai1/STIM1 (Homo sapiens, UniProt Q96D31)
Construct: expressed in transfected cells; host or cells: HEK-293
Sequence (Q96D31 whole entry): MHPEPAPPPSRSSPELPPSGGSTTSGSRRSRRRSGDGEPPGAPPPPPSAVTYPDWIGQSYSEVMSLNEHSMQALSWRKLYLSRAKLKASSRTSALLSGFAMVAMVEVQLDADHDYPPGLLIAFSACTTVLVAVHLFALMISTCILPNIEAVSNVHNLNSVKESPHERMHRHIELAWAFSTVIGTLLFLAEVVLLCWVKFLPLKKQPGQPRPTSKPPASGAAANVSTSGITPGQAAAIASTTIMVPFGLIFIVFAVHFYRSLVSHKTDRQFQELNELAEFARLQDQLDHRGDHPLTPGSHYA
experimentalProtocol: Fluorescence-based assay of store-operated calcium entry in Orai1/STIM1 stable cells
Type: cell-based
measurementSetup: Table iv; HEK-293 cells stably expressing human STIM1 and Orai1; 50% inhibition of Peak-Basal fluo-4 signal; read-out: Orai1/STIM1 (IC50, μmol)

recordSmiles	recordedMeasurement
Cc1cc(C(F)(F)F)nn1-c1ccc(NC(=O)c2c(F)cncc2F)cc1	> 1200 nM
Cn1nc(C(F)(F)F)cc1-c1ccc(NC(=O)c2c(F)cncc2F)cc1	< 600 nM
Cc1cc(F)ccc1C(=O)Nc1ccc(-n2cc(C(F)(F)F)nc2C)c(F)c1	> 1200 nM
Cc1cccc(F)c1C(=O)Nc1ccc(-c2cc(C(F)(F)F)nn2C)c(F)c1	< 600 nM

Now for the molecule whose IC50 we want.
Ask: Which measured IC50 value corresponds to `Cn1nc(C(F)(F)F)cc1-c1ccc(NC(=O)c2c(F)cc(F)cc2F)cc1` ?
Reply: < 600 nM
